Entries and their measured Human Plasma Protein Stability % Remaining Avg follow.
- assay: Human Plasma Protein Stability (% Remaining)
- Type: in vitro ADME
- statedConditions: average
Enter your answer as a number in %; do not include the unit.

Look over these answered cases.
[
  {
    "moleculeSmiles": "Cc1occc1CNc1cccc(-c2ccc(S(C)(=O)=O)cc2)n1",
    "recordedValue": 99
  },
  {
    "moleculeSmiles": "CS(=O)(=O)c1ccc(-c2cccc(NCc3cccs3)n2)cc1",
    "recordedValue": 100
  },
  {
    "moleculeSmiles": "CS(=O)(=O)c1ccc(-c2cccc(NCc3ccc(F)o3)n2)cc1",
    "recordedValue": 97
  },
  {
    "moleculeSmiles": "CS(=O)(=O)c1ccc(-c2cccc(OCc3ccsc3)n2)cc1",
    "recordedValue": 114
  },
  {
    "moleculeSmiles": "COc1ncc(NCc2cccs2)nc1-c1ccc(S(C)(=O)=O)cc1",
    "recordedValue": 93.9
  },
  {
    "moleculeSmiles": "CS(=O)(=O)c1ccc(-c2cccc(NCc3ccoc3)n2)cc1",
    "recordedValue": 102.5
  },
  {
    "moleculeSmiles": "CS(=O)(=O)c1ccc(-c2ccc(F)c(NCc3ccoc3)n2)cc1",
    "recordedValue": 100
  },
  {
    "moleculeSmiles": "CS(=O)(=O)c1ccc(-c2cc(F)cc(NCc3ccco3)n2)cc1",
    "recordedValue": 118
  }
]

Exercise: // query Human Plasma Protein Stability % Remaining Avg value for entry CS(=O)(=O)c1ccc(-c2cc(F)cc(NCc3ccoc3)n2)cc1
Key: 100

Exercise: // query Human Plasma Protein Stability % Remaining Avg value for entry COc1ccc(NCc2cccs2)nc1-c1ccc(S(C)(=O)=O)cc1
Key: 95

Exercise: // query Human Plasma Protein Stability % Remaining Avg value for entry CS(=O)(=O)c1ccc(-c2cncc(OCc3cccs3)n2)cc1
Key: 92.4

Exercise: // query Human Plasma Protein Stability % Remaining Avg value for entry CS(=O)(=O)c1ccc(-c2nc(OCc3cccs3)cc3ccoc23)cc1
Key: 102

Exercise: // query Human Plasma Protein Stability % Remaining Avg value for entry CS(=O)(=O)c1ccc(-c2cccc(OCc3cccs3)n2)cc1
Key: 94

Exercise: // query Human Plasma Protein Stability % Remaining Avg value for entry CS(=O)(=O)c1ccc(-c2nc(NCc3ccoc3)ccc2F)cc1
Key: 96

Exercise: // query Human Plasma Protein Stability % Remaining Avg value for entry CS(=O)(=O)c1ccc(-c2ccc(F)c(NCc3ccco3)n2)cc1
Key: 108

Exercise: // query Human Plasma Protein Stability % Remaining Avg value for entry CS(=O)(=O)c1ccc(-c2cccc(/C=C\c3ccoc3)n2)cc1
Key: 97

Exercise: // query Human Plasma Protein Stability % Remaining Avg value for entry CS(=O)(=O)c1ccc(-c2cccc(NCc3ccco3)n2)cc1
Key: 100

Exercise: // query Human Plasma Protein Stability % Remaining Avg value for entry CS(=O)(=O)c1ccc(-c2cccc(OCc3ccoc3)n2)cc1
Key: 121

Exercise: // query Human Plasma Protein Stability % Remaining Avg value for entry CS(=O)(=O)c1ccc(-c2nc(NCc3cccs3)cc3ccoc23)cc1
Key: 99
